Data origin: patent EP4722219A1

Test system: T-47D cells
Assay: Inhibition of cell proliferation in T-47D cells (CCK-8)
Assay type: cell-based
Conditions: Homo sapiens, T47D, 144 h, 6 days treatment, CCK-8 cell viability
Text: Test Example 2 Inhibitory effect of PROTAC compounds provided by the present invention on cell proliferation in T-47D cells The complete culture medium required for T-47D cells is 1640 (ATCC, Product number: A10491-01) basal culture medium containing 10% fetal bovine serum. […] According to the manufacturer's instructions, cell viability was detected using a CCK-8 kit (Beyotime, Product number: C0040). […]
Returns: string. Value is Condition met if measured IC50 is below 2 nM, and Condition not met if it is greater than or equal to it.

- compound: "C[C@@H]1Cc2cc(O)ccc2C(c2c(F)cc(N3CCC(C(=O)N4CCC(N5CCC6(CC5)COc5c6ccc6c5n(C)c(=O)n6C5CCC(=O)NC5=O)CC4)CC3)cc2F)N1CC(F)F (some centres unmarked) [ER-P-30]"
  categoryLabel: "Condition not met"
- compound: "O=C1CCC(Nc2ccc3c(c2)OCC32CCN(C[C@H]3CC[C@@H](OC4CCN(c5ccc([C@@H]6c7ccc(O)cc7CC[C@@H]6c6ccccc6)cc5)CC4)CC3)CC2)C(=O)N1 (some centres unmarked) [ER-P-31]"
  categoryLabel: "Condition not met"
- compound: "Cn1c(=O)n(C2CCC(=O)NC2=O)c2ccc3c(c21)C1(CCN(C2CCC4(CC2)CN(c2ccc([C@@H]5c6ccc(O)cc6CC[C@@H]5c5ccccc5)cc2)C4)CC1)CO3 (some centres unmarked) [ER-P-19]"
  categoryLabel: "Condition not met"
- compound: "O=C1CCC(N2Cc3c(ccc4c3OCC43CCC4(CCN(C5CC6(CCN(c7ccc([C@@H]8c9ccc(O)cc9CC[C@@H]8c8ccccc8)cc7)CC6)C5)CC4)CC3)C2=O)C(=O)N1 (some centres unmarked) [ER-P-3]"
  categoryLabel: "Condition not met"

Exercise: Given O=C1CCC(N2Cc3c(ccc4c3OCC43CCC4(CC3)CN(C3CCC5(CC3)CN(c3ccc([C@@H]6c7ccc(O)cc7CC[C@@H]6c6ccccc6)cc3)C5)C4)C2=O)C(=O)N1 (some centres unmarked) [ER-P-10] , is recorded IC50 strictly lower than 2 nM?
Key: Condition met

Exercise: // repeat for CN(c1ccc2c(c1)COC[C@H]1CN(CC3CCC(OC4CCN(c5ccc([C@@H]6c7ccc(O)cc7CC[C@@H]6c6ccccc6)cc5)CC4)CC3)CCN21)C1CCC(=O)NC1=O (some centres unmarked) [ER-P-52] and report
Key: Condition not met

Exercise: Consider next the compound Cn1c(=O)n(C2CCC(=O)NC2=O)c2cc3c(cc21)C1(CCN(C[C@H]2CC[C@@H](OC4CCN(c5ccc([C@@H]6c7ccc(O)cc7CC[C@@H]6c6ccccc6)cc5)CC4)CC2)CC1)CO3 (some centres unmarked) [ER-P-55] in the same way.
Key: Condition met

Exercise: Now the same for Cn1c(=O)n(C2CCC(=O)NC2=O)c2cc3c(cc21)OC1(CC3)CCN(C[C@H]2CC[C@@H](OC3CCN(c4ccc([C@@H]5c6ccc(O)cc6CC[C@@H]5c5ccccc5)cc4)CC3)CC2)CC1 (some centres unmarked) [ER-P-65]
Key: Condition not met

Exercise: Next up: O=C1CCC(NC(=O)c2cc3c(cc2F)OC2(CC3)CCN(CC3CCC(OC4CCN(c5ccc(C6c7ccc(O)cc7CCC6c6ccccc6)cc5)CC4)CC3)CC2)C(=O)N1 (centres unmarked) [ER-P-89]
Key: Condition not met

Exercise: Now try Cn1c(=O)n(C2CCC(=O)NC2=O)c2cc3c(cc21)C1(CCN(C2CC4(CCN(c5ccc([C@@H]6c7ccc(O)cc7CC[C@@H]6c6ccccc6)cc5)CC4)C2)CC1)CO3 (some centres unmarked) [ER-P-12] .
Key: Condition not met

Exercise: Input O=C1CCC(N2Cc3c(ccc4c3OCC43CCC4(CCN(C5CCC6(CC5)CCN(c5ccc([C@@H]7c8ccc(O)cc8CC[C@@H]7c7ccccc7)cc5)CC6)CC4)CC3)C2=O)C(=O)N1 (some centres unmarked) [ER-P-57]
Key: Condition not met

Exercise: Would you kindly repeat that for Cn1c(=O)n(C2CCC(=O)NC2=O)c2ccc3c(c21)OCC31CCN(C(=O)C2CN(CC3CCN(c4ccc([C@@H]5c6ccc(O)cc6CC[C@@H]5c5ccccc5)cc4)CC3)C2)CC1 (some centres unmarked) [ER-P-25] ?
Key: Condition met

Exercise: Also need O=C1CCC(N2Cc3c(ccc4c3OCC43CCC4(CC3)CN(C3CCN(C(=O)C5CCN(c6ccc([C@@H]7c8ccc(O)cc8CC[C@@H]7c7ccccc7)cc6)CC5)CC3)C4)C2=O)C(=O)N1 (some centres unmarked) [ER-P-6] , thanks.
Key: Condition met

Exercise: What about this compound? Cn1c(=O)n(C2CCC(=O)NC2=O)c2ccc3c(c21)OCC31CCN(CC2CCN(c3ccc([C@@H]4c5ccc(O)cc5CC[C@@H]4c4ccccc4)cc3)CC2)CC1 (some centres unmarked) [ER-P-73]
Key: Condition not met

Exercise: Next compound up: O=C1CC[C@H](NC(=O)c2ccc3c(c2F)OCC32CCN(CC3CCN(c4ccc([C@@H]5c6ccc(O)cc6CC[C@@H]5c5ccccc5)cc4)CC3)CC2)C(=O)N1 [ER-P-42]
Key: Condition not met

Exercise: // next record CN(CC(=O)N1CCC2(CC1)COc1c2ccc2c1n(C)c(=O)n2C1CCC(=O)NC1=O)CC1CCN(c2ccc([C@@H]3c4ccc(O)cc4CC[C@@H]3c3ccccc3)cc2)CC1 (some centres unmarked) [ER-P-75]
Key: Condition met

Exercise: Next compound: Cn1c(=O)n(C2CCC(=O)NC2=O)c2ccc3c(c21)OCC31CCN(C2CCN(C3CCN(c4ccc([C@@H]5c6ccc(O)cc6CC[C@@H]5c5ccccc5)cc4)CC3)CC2)CC1 (some centres unmarked)
Key: Condition met

Exercise: Moving on to the next compound: C[C@@H]1Cc2cc(O)ccc2C(c2c(F)cc(N3CCC4(CC3)CC(N3CCC5(CC3)CCC3(CC5)COc5c3ccc3c5CN(C5CCC(=O)NC5=O)C3=O)C4)cc2F)N1CC(F)F (some centres unmarked) [ER-P-27]
Key: Condition met

Exercise: Same for COc1cc2c(cc1C(=O)NC1CCC(=O)NC1=O)CCC1(CCN(CC3CCC(OC4CCN(c5ccc(C6c7ccc(O)cc7CCC6c6ccccc6)cc5)CC4)CC3)CC1)O2 (centres unmarked) [ER-P-88]
Key: Condition not met
